PROTOCOL TEXT: The drug is tested on Bifidobacterium ruminantium strain: fecal isolate for biotransformation. The drug concentrations were measured before and after a 12-h incubation by liquid-chromatography-coupled mass spectrometry (LC–MS)
CONDITION PARAMETERS: 2 µM
READOUT TYPE: Bacterial Biotransformation

Worked cases, answers included:
# MOLECULE, Bacterial Biotransformation
rows = [
    ("NC(=O)N1c2ccccc2CC(=O)c2ccccc21 [OXCARBAZEPINE]", "Compound metabolized"),
    ("C[C@]12CCC(=O)C=C1[C@@H]1C[C@@H]1[C@H]1[C@@H]3[C@@H]4C[C@@H]4[C@@]4(CCC(=O)O4)[C@@]3(C)CC[C@@H]12 [DROSPIRENONE]", "Compound NOT metabolized"),
    ("Cc1nc2n(c(=O)c1CCN1CCC(c3noc4cc(F)ccc34)CC1)CCCC2O (stereo not drawn) [PALIPERIDONE]", "Compound metabolized"),
    ("CN1C(C(=O)Nc2ccccn2)=C(O)c2sccc2S1(=O)=O [TENOXICAM]", "Compound NOT metabolized"),
    ("CC(C)(C)NC[C@H](O)COc1nsnc1N1CCOCC1.O=C(O)/C=C\\C(=O)O [TIMOLOL MALEATE]", "Compound NOT metabolized"),
    ("CS(=O)(=O)O.O.O.O.O=C1Cc2cc(CCN3CCN(c4nsc5ccccc45)CC3)c(Cl)cc2N1 [ZIPRASIDONE MESYLATE]", "Compound NOT metabolized"),
    ("CC(=O)Oc1ccc(C(c2ccc(OC(C)=O)cc2)c2ccccn2)cc1 [BISACODYL]", "Compound metabolized"),
]

Attention now shifts to the item below.
### Prompt If you can, please state the reported Bacterial Biotransformation value of O=C(CCCN1CCC2(CC1)C(=O)NCN2c1ccccc1)c1ccc(F)cc1 [SPIPERONE] .
### Response Compound NOT metabolized

* * *

CONDITION PARAMETERS: parabacteroides johnsonii, 12 h, 2 µM
Description: The drug is tested on Parabacteroides johnsonii strain: DSM18315 for biotransformation. The drug concentrations were measured before and after a 12-h incubation by liquid-chromatography-coupled mass spectrometry (LC–MS)
READOUT TYPE: Bacterial Biotransformation

# MOLECULE, RECORDED MEASUREMENT
records = [
    ("C[C@@H]1C[C@H]2[C@@H]3CCC4=CC(=O)C=C[C@]4(C)[C@@]3(F)[C@@H](O)C[C@]2(C)[C@@]1(O)C(=O)CO", "Compound metabolized"),
    ("CCN1CCCC1CNC(=O)c1cc(S(N)(=O)=O)ccc1OC (centres undefined) [SULPIRIDE]", "Compound NOT metabolized"),
    ("O=C(O[C@H]1C[C@H]2CC[C@@H](C1)[N+]21CCCC1)C(O)(c1ccccc1)c1ccccc1.[Cl-] [TROSPIUM CHLORIDE]", "Compound NOT metabolized"),
    ("COc1c(C)c2c(c(O)c1C/C=C(\\C)CCC(=O)OCCN1CCOCC1)C(=O)OC2 [MYCOPHENOLATE MOFETIL]", "Compound metabolized"),
    ("CCc1nn(CCCN2CCN(c3cccc(Cl)c3)CC2)c(=O)n1CCOc1ccccc1", "Compound NOT metabolized"),
    ("N=C(N)NC(=O)Cc1c(Cl)cccc1Cl", "Compound NOT metabolized"),
    ("O=C1CC2(CCCC2)CC(=O)N1CCCCN1CCN(c2ncccn2)CC1", "Compound NOT metabolized"),
    ("CCCCCNC(=N)N/N=C/c1c[nH]c2ccc(OC)cc12.O=C(O)/C=C\\C(=O)O [TEGASEROD MALEATE]", "Compound NOT metabolized"),
]

### Prompt If you can, please state the reported Bacterial Biotransformation value of CCCC(=O)Nc1ccc(OCC(O)CNC(C)C)c(C(C)=O)c1 (centres undefined) .
### Response Compound NOT metabolized

### Prompt If you can, please state the reported Bacterial Biotransformation value of CN(C)CCOC(c1ccc(Cl)cc1)c1ccccn1.O=C(O)/C=C\C(=O)O (centres undefined) [CARBINOXAMINE MALEATE] .
### Response Compound NOT metabolized

### Prompt If you can, please state the reported Bacterial Biotransformation value of C=CC[C@@H]1/C=C(\C)C[C@H](C)C[C@H](OC)[C@H]2O[C@@](O)(C(=O)C(=O)N3CCCC[C@H]3C(=O)O[C@H](/C(C)=C/[C@@H]3CC[C@@H](O)[C@H](OC)C3)[C@H](C)[C@@H](O)CC1=O)[C@H](C)C[C@@H]2OC.O .
### Response Compound metabolized

### Prompt If you can, please state the reported Bacterial Biotransformation value of CC(C)(Oc1ccc(CCNC(=O)c2ccc(Cl)cc2)cc1)C(=O)O [BEZAFIBRATE] .
### Response Compound NOT metabolized

### Prompt If you can, please state the reported Bacterial Biotransformation value of O=C1NCC2(CCN(CCc3ccccc3)CC2)O1 [FENSPIRIDE] .
### Response Compound metabolized

* * *

PROTOCOL TEXT: The drug is tested on Bacteroides vulgatus strain: ATCC8482 for biotransformation. The drug concentrations were measured before and after a 12-h incubation by liquid-chromatography-coupled mass spectrometry (LC–MS)
CONDITION PARAMETERS: phocaeicola vulgatus, 2 µM
READOUT TYPE: Bacterial Biotransformation

# MOLECULE, READOUT TYPE, RECORDED MEASUREMENT
data = [
    ("CN1C(C(=O)Nc2ccccn2)=C(O)c2sccc2S1(=O)=O", "Bacterial Biotransformation", "Compound NOT metabolized"),
    ("Cc1ccc(NC(=O)c2ccc(CN3CCN(C)CC3)cc2)cc1Nc1nccc(-c2cccnc2)n1", "Bacterial Biotransformation", "Compound metabolized"),
    ("CCOC(=O)C1=C(C)NC(C)=C(C(=O)OC)C1c1cccc([N+](=O)[O-])c1 (centres undefined)", "Bacterial Biotransformation", "Compound metabolized"),
    ("CCOc1ccc(NC(C)=O)cc1", "Bacterial Biotransformation", "Compound NOT metabolized"),
    ("Clc1ccc(Cn2c(CN3CCCC3)nc3ccccc32)cc1", "Bacterial Biotransformation", "Compound NOT metabolized"),
    ("COc1ccccc1OCC(O)CN1CCN(CC(=O)Nc2c(C)cccc2C)CC1 (centres undefined)", "Bacterial Biotransformation", "Compound NOT metabolized"),
    ("O=C1NCC2(CCN(CCc3ccccc3)CC2)O1 [FENSPIRIDE]", "Bacterial Biotransformation", "Compound NOT metabolized"),
    ("O=C(O)CCc1nc(-c2ccccc2)c(-c2ccccc2)o1", "Bacterial Biotransformation", "Compound metabolized"),
]

### Prompt If you can, please state the reported Bacterial Biotransformation value of NC(CO)(CO)CO.O=C(c1ccccc1)c1ccc2n1CCC2C(=O)O (centres undefined) .
### Response Compound metabolized

* * *

PROTOCOL TEXT: The drug is tested on Bacteroides coprophilus strain: DSM18228 for biotransformation. The drug concentrations were measured before and after a 12-h incubation by liquid-chromatography-coupled mass spectrometry (LC–MS)
CONDITION PARAMETERS: 2 µM
READOUT TYPE: Bacterial Biotransformation

Worked cases, answers included:
# COMPOUND, Bacterial Biotransformation
records = [
    ("COc1ccc2[nH]c([S+]([O-])Cc3ncc(C)c(OC)c3C)nc2n1 (stereo not given)", "Compound metabolized"),
    ("O=C(O)COCCN1CCN(C(c2ccccc2)c2ccc(Cl)cc2)CC1 (stereo not given)", "Compound metabolized"),
    ("CC(Oc1c(Cl)cccc1Cl)C1=NCCN1 (stereo not given)", "Compound metabolized"),
    ("COc1ccc(C(CN(C)C)C2(O)CCCCC2)cc1 (stereo not given)", "Compound NOT metabolized"),
]

Attention now shifts to the item below.
### Prompt If you can, please state the reported Bacterial Biotransformation value of O=C(O)CCc1nc(-c2ccccc2)c(-c2ccccc2)o1 .
### Response Compound NOT metabolized

* * *

PROTOCOL TEXT: The drug is tested on Bacteroides fragilis strain: HMW615 for biotransformation. The drug concentrations were measured before and after a 12-h incubation by liquid-chromatography-coupled mass spectrometry (LC–MS)
CONDITION PARAMETERS: 2 µM
READOUT TYPE: Bacterial Biotransformation

Worked cases, answers included:
# MOLECULE, READOUT TYPE, RECORDED MEASUREMENT
data = [
    ("Br.CN(C)CCCC1(c2ccc(F)cc2)OCc2cc(C#N)ccc21 (centres undefined) [CITALOPRAM HYDROBROMIDE]", "Bacterial Biotransformation", "Compound NOT metabolized"),
    ("Cc1cc2c(cc1S(N)(=O)=O)S(=O)(=O)CCC2", "Bacterial Biotransformation", "Compound NOT metabolized"),
    ("COc1ccc(C(CN(C)C)C2(O)CCCCC2)cc1 (centres undefined)", "Bacterial Biotransformation", "Compound NOT metabolized"),
    ("CCCCC1=NC2(CCCC2)C(=O)N1Cc1ccc(-c2ccccc2-c2nnn[nH]2)cc1", "Bacterial Biotransformation", "Compound metabolized"),
    ("CN1CCN(C2=Nc3cc(Cl)ccc3Nc3ccccc32)CC1", "Bacterial Biotransformation", "Compound NOT metabolized"),
]

Attention now shifts to the item below.
### Prompt If you can, please state the reported Bacterial Biotransformation value of CCc1cccc2c3c([nH]c12)C(CC)(CC(=O)O)OCC3 (centres undefined) .
### Response Compound metabolized
